B1: HDV Ribozyme (parent)
chain: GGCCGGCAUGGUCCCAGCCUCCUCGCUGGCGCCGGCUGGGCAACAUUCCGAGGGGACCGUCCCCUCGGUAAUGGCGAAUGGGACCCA

Variants of: B1
Run description: self-cleavage, relative activity (ratio to wild type); higher = more cleavage; co-transcriptional
Measured property: self-cleavage

| Mutant designation | Assay value |
| --- | --- |
| G11A G55U | 0.328 |
| G1U U65A | 0.191 |
| A8G C57G | 1.27 |
| G82A C86A | 0.729 |
| U23G C57G | 0.831 |
| U20G U60A | 0 |
| A56C C75G | 0.115 |
| C75U A77C | 0.208 |
| C33A C48A | 0.314 |
| U46G G54A | 0.656 |
| A8U A78G | 0.388 |
| G11A C84U | 0.991 |
| G2U U27A | 0.0767 |
| C18A C84G | 0.0437 |
| C21G A42U | 0.0437 |
| G2U G53C | 0.0647 |
| U9G C64G | 0.831 |
| G68A A78G | 0.727 |
| G5A G55C | 0.104 |
| G34U G35C | 0.154 |
| U12G G76C | 1.2 |
| U9A C21A | 0.0739 |
| C19A A45C | 0.0755 |
| C4A U47A | 0.156 |
| G5C A70G | 0.158 |
| U20C C22U | 0.125 |
| G2U G38A | 0.032 |
| C15G G81C | 0.375 |
| C19A A51G | 0.0712 |
| C7A C63A | 0.489 |
| C15U C57A | 1.03 |
| G10C C32A | 0.185 |
| G2U C26A | 0.0357 |
| C49G A78U | 0.138 |
| C30U A71U | 0.372 |
| A45C | 0.702 |
| C26A U69G | 1.15 |
| C36G A51U | 0.0519 |
| G59U C84U | 0.865 |
| A70U U79A | 0.831 |
| U23C G54A | 0.888 |
| G5A C33A | 0.219 |
| A45U C48U | 0.79 |
| G31C G38A | 0.0692 |
| C4A A42U | 0.0997 |
| C3U G28A | 0.0294 |
| G29A U65A | 0.0627 |
| G2U C22U | 0.032 |
| C58G C85A | 1.05 |
| G52C G76U | 1.03 |
| C48A A56G | 1.2 |
| C66A G68C | 0.453 |
| C33A G40A | 0.214 |
| U46C A70C | 0.795 |
| G25U C58A | 0.244 |
| C41G A56G | 0.851 |
| U20A C85A | 0.26 |
| C33G G39C | 0.0386 |
| G53C U72A | 0.601 |

Where do these numbers come from? They come from the RNAGym collection of RNA variant scans (doi:10.7554/elife.80360).
